assayed-system: full-length kinase/Nluc fusion proteins (Homo sapiens, UniProt Q07912)
Sequence (Q07912 whole entry, the tested form may be a part): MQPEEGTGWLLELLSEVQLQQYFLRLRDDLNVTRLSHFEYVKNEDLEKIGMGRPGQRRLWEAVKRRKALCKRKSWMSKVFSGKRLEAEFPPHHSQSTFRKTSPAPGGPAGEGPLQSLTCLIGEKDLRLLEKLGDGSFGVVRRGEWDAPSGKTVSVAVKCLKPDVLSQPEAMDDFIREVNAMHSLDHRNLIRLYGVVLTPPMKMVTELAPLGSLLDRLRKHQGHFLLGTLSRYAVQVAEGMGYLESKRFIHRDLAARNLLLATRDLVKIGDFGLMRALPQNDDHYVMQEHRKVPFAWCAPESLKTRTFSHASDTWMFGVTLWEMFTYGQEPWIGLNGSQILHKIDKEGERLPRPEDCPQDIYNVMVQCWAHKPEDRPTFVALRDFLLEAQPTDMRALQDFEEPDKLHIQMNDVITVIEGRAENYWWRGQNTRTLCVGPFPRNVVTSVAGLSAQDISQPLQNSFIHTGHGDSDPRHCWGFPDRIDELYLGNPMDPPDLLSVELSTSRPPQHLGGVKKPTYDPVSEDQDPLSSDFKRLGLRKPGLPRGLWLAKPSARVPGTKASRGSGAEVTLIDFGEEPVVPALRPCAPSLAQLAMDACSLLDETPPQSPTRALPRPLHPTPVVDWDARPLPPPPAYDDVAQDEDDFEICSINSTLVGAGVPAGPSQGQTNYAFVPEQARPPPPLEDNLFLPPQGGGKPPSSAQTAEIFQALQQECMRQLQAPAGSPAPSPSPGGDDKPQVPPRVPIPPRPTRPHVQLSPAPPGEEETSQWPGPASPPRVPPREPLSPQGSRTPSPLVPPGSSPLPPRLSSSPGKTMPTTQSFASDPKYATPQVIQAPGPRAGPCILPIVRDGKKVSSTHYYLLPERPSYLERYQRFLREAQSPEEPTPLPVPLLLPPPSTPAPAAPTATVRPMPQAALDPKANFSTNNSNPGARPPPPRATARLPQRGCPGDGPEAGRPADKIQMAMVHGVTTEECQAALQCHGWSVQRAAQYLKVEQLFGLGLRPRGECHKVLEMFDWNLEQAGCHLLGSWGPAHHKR
procedure-summary: Apparent affinity (EC50) of energy transfer probes by titration onto live HEK293 cells expressing kinase/Nluc fusions (Table S1)
experimental-parameters: TNK2 (NP_001010938), Nluc orientation C; read-out: Probe EC50
pEC50: −log10 of the molar value.

molecule	pEC50
Cc1nc(Nc2ncc(C(=O)Nc3c(C)cccc3Cl)s2)cc(N2CCN(CCOCCNC(=O)CCc3ccc4n3[B-](F)(F)[N+]3=C(c5ccc[nH]5)C=CC3=C4)CC2)n1 [Energy Transfer Probe 6]	7.00

* * *

assayed-system: full-length kinase/Nluc fusion proteins (Homo sapiens)
procedure-summary: Apparent affinity (EC50) of energy transfer probes by titration onto live HEK293 cells expressing kinase/Nluc fusions (Table S1)
experimental-parameters: PLK2, Nluc N; read-out: Probe EC50

molecule	EC50
CNC(=O)c1ccccc1Nc1nc(Nc2ccc(N3CCN(C(=O)CCOCCOCCOCCOCCNC(=O)CCc4ccc5n4[B-](F)(F)[N+]4=C(c6ccc[nH]6)C=CC4=C5)CC3)cc2)ncc1Cl [Energy Transfer Probe 5]	> 1000 nM

* * *

assayed-system: full-length kinase/Nluc fusion proteins (Homo sapiens, UniProt P57059)
Sequence (P57059 whole entry, the tested form may be a part): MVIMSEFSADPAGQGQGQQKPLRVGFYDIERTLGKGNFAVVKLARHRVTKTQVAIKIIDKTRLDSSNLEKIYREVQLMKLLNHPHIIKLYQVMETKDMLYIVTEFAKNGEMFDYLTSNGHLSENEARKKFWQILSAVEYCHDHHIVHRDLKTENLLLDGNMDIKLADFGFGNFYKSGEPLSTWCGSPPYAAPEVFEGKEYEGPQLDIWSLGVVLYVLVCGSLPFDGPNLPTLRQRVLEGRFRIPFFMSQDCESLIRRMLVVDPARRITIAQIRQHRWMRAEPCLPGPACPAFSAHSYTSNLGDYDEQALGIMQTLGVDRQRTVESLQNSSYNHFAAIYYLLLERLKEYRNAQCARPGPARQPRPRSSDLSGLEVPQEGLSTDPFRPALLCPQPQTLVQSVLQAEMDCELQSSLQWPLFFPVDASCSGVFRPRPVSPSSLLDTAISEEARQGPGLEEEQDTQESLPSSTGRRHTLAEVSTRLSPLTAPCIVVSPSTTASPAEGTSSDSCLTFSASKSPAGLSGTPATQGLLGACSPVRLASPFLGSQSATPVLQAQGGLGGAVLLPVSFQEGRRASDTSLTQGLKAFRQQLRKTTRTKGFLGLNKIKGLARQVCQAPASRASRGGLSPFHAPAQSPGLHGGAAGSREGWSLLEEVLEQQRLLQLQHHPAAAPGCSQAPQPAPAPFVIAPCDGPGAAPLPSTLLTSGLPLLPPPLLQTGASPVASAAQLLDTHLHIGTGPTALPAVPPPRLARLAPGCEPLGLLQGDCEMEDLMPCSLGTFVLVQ
procedure-summary: Apparent affinity (EC50) of energy transfer probes by titration onto live HEK293 cells expressing kinase/Nluc fusions (Table S1)
experimental-parameters: SIK1 (NP_001307572), Nluc orientation N; read-out: Probe EC50
pEC50: −log10 of the molar value.
outcome-measure: pEC50

compound	assay-value
Cc1nc(Nc2ncc(C(=O)Nc3c(C)cccc3Cl)s2)cc(N2CCN(CCOCCNC(=O)CCc3ccc4n3[B-](F)(F)[N+]3=C(c5ccc[nH]5)C=CC3=C4)CC2)n1 [Energy Transfer Probe 6]	7.00

* * *

assayed-system: full-length kinase/Nluc fusion proteins (Homo sapiens)
procedure-summary: Apparent affinity (EC50) of energy transfer probes by titration onto live HEK293 cells expressing kinase/Nluc fusions (Table S1)
experimental-parameters: EPHA7, Nluc C; read-out: Probe EC50

compound	EC50
CNC(=O)c1ccccc1Nc1nc(Nc2ccc(N3CCN(C(=O)CCOCCOCCOCCOCCNC(=O)CCc4ccc5n4[B-](F)(F)[N+]4=C(c6ccc[nH]6)C=CC4=C5)CC3)cc2)ncc1Cl [Energy Transfer Probe 5]	> 1000 nM

* * *

assayed-system: full-length kinase/Nluc fusion proteins (Homo sapiens)
procedure-summary: Apparent affinity (EC50) of energy transfer probes by titration onto live HEK293 cells expressing kinase/Nluc fusions (Table S1)
experimental-parameters: TYRO3 (NP_006284), Nluc orientation C; read-out: Probe EC50
outcome-measure: EC50

compound	assay-value
CNC(=O)c1ccccc1Nc1nc(Nc2ccc(N3CCN(C(=O)CCOCCOCCOCCOCCNC(=O)CCc4ccc5n4[B-](F)(F)[N+]4=C(c6ccc[nH]6)C=CC4=C5)CC3)cc2)ncc1Cl [Energy Transfer Probe 5]	> 1000 nM

* * *

assayed-system: full-length kinase/Nluc fusion proteins (Homo sapiens)
procedure-summary: Apparent affinity (EC50) of energy transfer probes by titration onto live HEK293 cells expressing kinase/Nluc fusions (Table S1)
experimental-parameters: GSK3A, Nluc N; read-out: Probe EC50

molecule	unit-string	EC50
N#CCc1ccc(Nc2nc(NCCCCNC(=O)CCc3ccc4n3[B-](F)(F)[N+]3=C(c5ccc[nH]5)C=CC3=C4)cc(Nc3cc(C4CC4)[nH]n3)n2)cc1 [Energy Transfer Probe 1]	nM	100

* * *

assayed-system: LCK (Homo sapiens, UniProt P06239)
Sequence (P06239 whole entry): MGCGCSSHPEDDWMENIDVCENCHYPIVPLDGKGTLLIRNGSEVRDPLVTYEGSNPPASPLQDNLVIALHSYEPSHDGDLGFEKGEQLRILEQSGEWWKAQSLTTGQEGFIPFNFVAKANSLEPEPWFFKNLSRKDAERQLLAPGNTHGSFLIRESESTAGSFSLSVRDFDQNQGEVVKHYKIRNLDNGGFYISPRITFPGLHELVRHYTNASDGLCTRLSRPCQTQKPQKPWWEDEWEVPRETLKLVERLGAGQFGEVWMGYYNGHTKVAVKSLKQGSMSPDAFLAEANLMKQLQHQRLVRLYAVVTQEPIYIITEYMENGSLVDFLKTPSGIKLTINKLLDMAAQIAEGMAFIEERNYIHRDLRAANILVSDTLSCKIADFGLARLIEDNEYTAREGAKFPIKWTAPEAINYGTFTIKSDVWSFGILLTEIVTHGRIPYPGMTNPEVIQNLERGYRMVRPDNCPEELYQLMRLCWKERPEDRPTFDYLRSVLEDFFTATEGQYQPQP
procedure-summary: NanoBRET target engagement, LCK-NanoLuc, HEK293 cells (live, ATP depleted, permeabilized)
Format: binding
experimental-parameters: LCK-NanoLuc; Live; read-out: Tracer Affinity EC50
outcome-measure: EC50

molecule	outcome-measure	assay-value
CNC(=O)c1ccccc1Nc1nc(Nc2ccc(N3CCN(C(=O)CCOCCOCCOCCOCCNC(=O)CCc4ccc5n4[B-](F)(F)[N+]4=C(c6ccc[nH]6)C=CC4=C5)CC3)cc2)ncc1Cl [Energy Transfer Probe 5]	EC50	> 1000 nM

* * *

assayed-system: full-length kinase/Nluc fusion proteins (Homo sapiens, UniProt Q96PY6)
Sequence (Q96PY6 1-1258): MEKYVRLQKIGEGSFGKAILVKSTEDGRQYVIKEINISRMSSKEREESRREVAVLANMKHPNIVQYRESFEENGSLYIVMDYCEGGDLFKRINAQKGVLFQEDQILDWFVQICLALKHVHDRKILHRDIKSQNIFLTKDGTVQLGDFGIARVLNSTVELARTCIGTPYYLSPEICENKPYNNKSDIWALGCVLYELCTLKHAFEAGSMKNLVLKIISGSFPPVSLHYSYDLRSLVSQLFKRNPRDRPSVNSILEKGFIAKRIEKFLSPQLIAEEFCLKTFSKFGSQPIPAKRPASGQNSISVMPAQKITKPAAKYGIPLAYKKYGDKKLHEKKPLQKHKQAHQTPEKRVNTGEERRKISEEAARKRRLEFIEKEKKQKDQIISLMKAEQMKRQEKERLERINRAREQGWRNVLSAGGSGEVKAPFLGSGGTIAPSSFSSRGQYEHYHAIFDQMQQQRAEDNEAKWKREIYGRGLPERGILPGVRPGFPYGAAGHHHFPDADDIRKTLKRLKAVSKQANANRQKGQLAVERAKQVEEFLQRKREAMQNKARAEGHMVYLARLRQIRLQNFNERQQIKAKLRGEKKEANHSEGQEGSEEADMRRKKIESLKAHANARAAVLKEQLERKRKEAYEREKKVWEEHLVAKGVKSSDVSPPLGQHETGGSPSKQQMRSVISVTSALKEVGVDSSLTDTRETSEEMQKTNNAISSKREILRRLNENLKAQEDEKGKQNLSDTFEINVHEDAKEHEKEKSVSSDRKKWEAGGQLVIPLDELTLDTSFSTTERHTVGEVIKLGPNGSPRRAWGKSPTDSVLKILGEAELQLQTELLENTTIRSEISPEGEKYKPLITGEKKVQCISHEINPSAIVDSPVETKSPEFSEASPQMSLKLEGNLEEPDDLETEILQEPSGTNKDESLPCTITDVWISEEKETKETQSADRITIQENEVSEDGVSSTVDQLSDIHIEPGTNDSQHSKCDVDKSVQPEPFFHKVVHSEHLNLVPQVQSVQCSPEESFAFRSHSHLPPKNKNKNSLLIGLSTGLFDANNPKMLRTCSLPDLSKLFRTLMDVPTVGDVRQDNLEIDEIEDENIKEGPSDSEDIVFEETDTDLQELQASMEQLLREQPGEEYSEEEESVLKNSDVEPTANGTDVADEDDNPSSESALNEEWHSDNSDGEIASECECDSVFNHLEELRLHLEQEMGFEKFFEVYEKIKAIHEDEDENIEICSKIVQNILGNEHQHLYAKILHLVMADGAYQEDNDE
procedure-summary: Apparent affinity (EC50) of energy transfer probes by titration onto live HEK293 cells expressing kinase/Nluc fusions (Table S1)
experimental-parameters: NEK1, Nluc N; read-out: Probe EC50

compound	EC50
CNC(=O)c1ccccc1Nc1nc(Nc2ccc(N3CCN(C(=O)CCOCCOCCOCCOCCNC(=O)CCc4ccc5n4[B-](F)(F)[N+]4=C(c6ccc[nH]6)C=CC4=C5)CC3)cc2)ncc1Cl [Energy Transfer Probe 5]	> 1000 nM

* * *

assayed-system: full-length kinase/Nluc fusion proteins (Homo sapiens)
procedure-summary: Apparent affinity (EC50) of energy transfer probes by titration onto live HEK293 cells expressing kinase/Nluc fusions (Table S1)
experimental-parameters: MAP4K3, Nluc N; read-out: Probe EC50
outcome-measure: EC50

molecule	outcome-measure	assay-value
CNC(=O)c1ccccc1Nc1nc(Nc2ccc(N3CCN(C(=O)CCOCCOCCOCCOCCNC(=O)CCc4ccc5n4[B-](F)(F)[N+]4=C(c6ccc[nH]6)C=CC4=C5)CC3)cc2)ncc1Cl [Energy Transfer Probe 5]	EC50	> 1000 nM

* * *

assayed-system: full-length kinase/Nluc fusion proteins (Homo sapiens)
Sequence (Q12866 21-999): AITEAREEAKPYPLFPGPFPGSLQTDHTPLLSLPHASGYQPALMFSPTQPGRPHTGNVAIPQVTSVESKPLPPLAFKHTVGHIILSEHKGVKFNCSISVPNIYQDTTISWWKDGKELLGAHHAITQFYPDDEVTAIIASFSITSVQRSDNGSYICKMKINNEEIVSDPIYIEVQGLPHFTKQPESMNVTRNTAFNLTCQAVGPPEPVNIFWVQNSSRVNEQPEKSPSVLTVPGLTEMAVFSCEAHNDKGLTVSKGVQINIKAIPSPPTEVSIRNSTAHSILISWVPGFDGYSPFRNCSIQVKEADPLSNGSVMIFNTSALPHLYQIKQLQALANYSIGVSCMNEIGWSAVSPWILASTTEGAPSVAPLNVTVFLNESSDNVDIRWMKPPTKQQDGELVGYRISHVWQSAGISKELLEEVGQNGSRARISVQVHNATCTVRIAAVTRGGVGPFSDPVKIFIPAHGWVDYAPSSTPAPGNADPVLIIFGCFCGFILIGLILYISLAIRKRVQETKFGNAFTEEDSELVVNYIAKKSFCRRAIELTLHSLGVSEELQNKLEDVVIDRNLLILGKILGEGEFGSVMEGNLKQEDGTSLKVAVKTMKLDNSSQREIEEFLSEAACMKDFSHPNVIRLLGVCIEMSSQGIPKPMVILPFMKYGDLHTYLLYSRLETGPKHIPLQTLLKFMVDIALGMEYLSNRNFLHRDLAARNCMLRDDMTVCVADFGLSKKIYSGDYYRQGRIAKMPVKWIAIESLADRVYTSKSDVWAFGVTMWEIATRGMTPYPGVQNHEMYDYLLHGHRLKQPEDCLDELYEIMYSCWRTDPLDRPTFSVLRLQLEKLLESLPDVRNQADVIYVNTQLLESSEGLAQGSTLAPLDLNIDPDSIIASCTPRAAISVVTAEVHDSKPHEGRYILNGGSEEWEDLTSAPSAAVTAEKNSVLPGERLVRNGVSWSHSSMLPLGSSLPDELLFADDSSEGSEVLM
procedure-summary: Apparent affinity (EC50) of energy transfer probes by titration onto live HEK293 cells expressing kinase/Nluc fusions (Table S1)
experimental-parameters: MERTK, Nluc C; read-out: Probe EC50

compound	EC50 / nM
CNC(=O)c1ccccc1Nc1nc(Nc2ccc(N3CCN(C(=O)CCOCCOCCOCCOCCNC(=O)CCc4ccc5n4[B-](F)(F)[N+]4=C(c6ccc[nH]6)C=CC4=C5)CC3)cc2)ncc1Cl [Energy Transfer Probe 5]	300

// provenance: paper PMC5814754
